Measured Kd by item
Biological target: T1, cyno MAdCAM (cynomolgus)
T1 construct: also called cynomolgus MAdCAM
Test: BLI (Octet), binder on anti-human Fc tips
Answer with a number only, understood to be in nM.

// solved cases for Kd follow
| BINDER | READOUT LABEL | UNIT DESCRIPTOR | ENDPOINT RESULT |
| --- | --- | --- | --- |
| MIAB208 (antibody, V domains shown, tested with human Fc) VH: EVQLLESGGGLVQPGGSLRLSCAASGFTFDDYAMHWVRQAPGKGLEWVASITSSSAFIDYADSVKGRFTISRDNSKNTLYLQMNSLRAEDTAVYYCARERVDWNSYFDLWGQGTLVTVSS VL: EIVMTQSPATLSVSPGERATLSCRASQSVYSNLAWYQQKPGQAPRLLIYDASTRATGIPARFSGSGSGTEFTLTISSLQSEDFAVYYCQQYHIWPPTFGQGTKVEIK | Kd | nM | 142 |
| MIAB169 (antibody, V domains shown, tested with human Fc; also called MIAB169-CHO; MIAB169-HEK) VH: EVQLLESGGGLVQPGGSLRLSCAASGFTFSDFWMHWVRQAPGKGLEWISYISGDSGYTNYADSVKGRFTISRDNSKNTLYLQMNSLRAEDTAVYYCARDRPYYYIMDVWGKGTTVTVSS VL: DIQMTQSPSSLSASVGDRVTITCRASQSVSRSLAWYQQKPGKAPKLLIYAASSLQSGVPSRFSGSGSGTDFTLTISSLQPEDFATYYCQQYKSYPVTFGQGTKVEIK | Kd | nM | 153 |
| MIAB124 (antibody, V domains shown, tested with human Fc) VH: EVQLLESGGGLVQPGGSLRLSCAASGFTFSTDAMSWVRQAPGKGLEWSAISGSGGSTYSADSVKGRFTISRDNSKNTLYLQMNSLRAEDTAVYYCARARVDWNSYNDLWGQGTLVTVSS VL: EIVMTQSPATLSVSPGERATLSCRASQSVNNKLAWYQQKPGQAPRLLIYAASTRATGIPARFSGSGSGTEFTLTISSLQSEDFAVYYCQQYSTWPITFGQGTKVEIK | Kd | nM | 11.5 |

GET /values?readout=Kd&item= MIAB207 (antibody, V domains shown, tested with human Fc) VH: EVQLLESGGGLVQPGGSLRLSCAASGFTFDDYAMHWVRQAPGKGLEWVASITSSSAFIDYADSVKGRFTISRDNSKNTLYLQMNSLRAEDTAVYYCARERVDWNSYFDLWGQGTLVTVSS VL: EIVMTQSPATLSVSPGERATLSCRASQSVYSNLVWYQQKPGQAPRLLIYRASTRATGIPARFSGSGSGTEFTLTISSLQSEDFAVYYCQQYHIWPPTFGQGTKVEIK 73.7

GET /values?readout=Kd&item= MIAB123 (antibody, V domains shown, tested with human Fc) VH: EVQLLESGGGLVQPGGSLRLSCAASGFIFDDYAMHWVRQAPGKGLEWVASITSSSAFIDYADSVKGRFTISRDNSKNTLYLQMNSLRAEDTAVYYCARERVDWFSYFDLWGQGTLVTVSS VL: EIVMTQSPATLSVSPGERATLSCRASQSVSNNYLVWYQQKPGQAPRLLIYDASTRATGIPARFSGSGSGTEFTLTISSLQSEDFAVYYCQQYSHWPPTFGQGTKVEIK 77.9

GET /values?readout=Kd&item= MIAB25 (antibody, V domains shown, tested with human Fc) VH: EVQLLESGGGLVQPGGSLRLSCAASGFIFDDYAMHWVRQAPGKGLEWVASITSSSAFIDYADSVKGRFTISRDNSKNTLYLQMNSLRAEDTAVYYCARERVDWFSYFDLWGQGTLVTVSS VL: EIVMTQSPATLSVSPGERATLSCRASQSVSNNLVWYQQKPGQAPRLLIYDASTRATGIPARFSGSGSGTEFTLTISSLQSEDFAVYYCQQYSHWPPTFGQGTKVEIK 60.8

GET /values?readout=Kd&item= MIAB209 (antibody, V domains shown, tested with human Fc) VH: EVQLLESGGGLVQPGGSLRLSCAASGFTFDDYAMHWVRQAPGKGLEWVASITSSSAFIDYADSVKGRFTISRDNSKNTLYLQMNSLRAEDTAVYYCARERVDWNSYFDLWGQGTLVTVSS VL: EIVMTQSPATLSVSPGERATLSCRASQSVYSNYLAWYQQKPGQAPRLLIYRASTRATGIPARFSGSGSGTEFTLTISSLQSEDFAVYYCQQYSHWPPTFGQGTKVEIK 99

Hey, just so you know, these numbers are from patent US20240010722A1.
